Ref: paper PMC10005547

TEST SYSTEM: ERα (Homo sapiens)
Construct: gene ESR1
Sequence (P03372 whole entry): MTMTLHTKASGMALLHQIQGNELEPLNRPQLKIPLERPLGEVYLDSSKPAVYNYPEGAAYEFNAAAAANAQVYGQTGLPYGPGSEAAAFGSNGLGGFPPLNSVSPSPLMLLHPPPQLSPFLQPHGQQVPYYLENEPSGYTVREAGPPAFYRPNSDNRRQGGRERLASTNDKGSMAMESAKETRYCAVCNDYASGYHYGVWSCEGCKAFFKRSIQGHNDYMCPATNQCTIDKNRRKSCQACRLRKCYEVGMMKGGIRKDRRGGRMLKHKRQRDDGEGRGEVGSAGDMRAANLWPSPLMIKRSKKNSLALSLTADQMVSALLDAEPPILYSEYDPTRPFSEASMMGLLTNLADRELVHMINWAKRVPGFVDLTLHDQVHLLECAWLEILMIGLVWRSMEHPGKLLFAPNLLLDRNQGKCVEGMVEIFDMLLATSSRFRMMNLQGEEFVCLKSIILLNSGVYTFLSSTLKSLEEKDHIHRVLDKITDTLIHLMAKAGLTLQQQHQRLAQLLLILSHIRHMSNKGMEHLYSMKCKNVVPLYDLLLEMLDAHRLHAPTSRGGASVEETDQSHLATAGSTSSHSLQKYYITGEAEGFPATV
EXPERIMENT SUMMARY: fluorescence polarization competition against a fluorescent ligand
Type: binding
Quick list: Ki per entry.
Respond numerically; units are µM and should not be typed.

| COMPOUND | Ki / µM |
| --- | --- |
| C=CS(=O)(=O)Oc1ccc2c(c1)C(=C(C#N)C#N)C=C(/C=C/c1ccc(B3OC(C)(C)C(C)(C)O3)cc1)O2 [P2] | 8.73 |

# context switch: different compound, same Ki
Please look up its Ki: CC1(C)OB(c2ccc(/C=C/C3=CC(=C(C#N)C#N)c4cc(O)ccc4O3)cc2)OC1(C)C [P1] 4.36
